Measured fluorescence slope by item
target: Muscarinic acetylcholine receptor M4 (Homo sapiens); experiment: compounds altering M4/GIRK thallium flux, either direction, primary screen, M4 allosteric agonist project, cell-based, HEK293 M4/GIRK, BTC-AM (AID 625); details: at 10 µM, actives lie on both sides;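 also: thallium influx through GIRK channels coupled to M4 in HEK293 cells with BTC-AM dye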
Measured Quantity: fluorescence slope

Compound	Observed Measurement
CC(=O)c1c(OCC(=O)O)ccc2c(C)cc(=O)oc12	0.00563
COc1cccc(NC(=O)CC2SC(=Nc3ccccc3)NC2=O)c1 (stereo unspecified)	0.00596
Cc1cc(Cn2ccnc2)c(C)cc1Cn1ccnc1	0.0041
Cc1ccc(-n2ncc3c(N4CCN(c5ccccc5)CC4)ncnc32)c(C)c1	0.00708
Cc1c(NC(=O)c2ccc(=O)oc2)c(=O)n(-c2ccccc2)n1C	0.00562
CC1(C)Cc2c(c(-c3ccccc3)nc(N3CCCC3)c2C(N)=O)CO1	0.00451
